The measurements presented in this section are drawn from paper PMC4207412.

System: Staphylococcus aureus ATCC 10566
Assay type: cell-based
Details: ATCC 10566, 18 h
Procedure: Microbiological studies were performed on Escherichia coli ATCC 25922 and Staphylococcus aureus ATCC 10566 (American Type Culture Collection (ATCC), Rockville, MD, USA) using carefully standardized conditions. A suspension of the bacteria (in exponential phase of growth) was prepared and then diluted to yield a final concentration of approximately 1 × 10^5 colony forming units (cfu) per milliliter. Stock peptides were dissolved in 9% sucrose solutions containing 5% dimethyl sulfoxide. […]
Square brackets hold non-standard residues; d marks the D form. Peptide text beside a SMILES is read from it.
QUANTITY_MEASURED: S. aureus ATCC 10566 MIC (µg/mL)

{"MOLECULE": "CC(C)C[C@@H]1NC(=O)[C@@H](CC(C)C)NC(=O)[C@H](CCC(=O)O)NC(=O)[C@@H](CCCCN)NC(=O)[C@H](CCCCN)NC(=O)[C@@H](CCCCN)NC(=O)[C@H](CS)NC(=O)[C@@H](CC(C)C)NC1=O [COP 6] (cyclo(C[dK]K[dK]E[dL]L[dL]))", "READOUT_UNITS": "µg/mL", "S. aureus ATCC 10566 MIC": 128}

a: CC(C)C[C@@H]1NC(=O)[C@@H](CC(C)C)NC(=O)[C@H](CCC(=O)O)NC(=O)[C@@H](CCCCN)NC(=O)[C@H](CCCCN)NC(=O)[C@@H](CCCCN)NC(=O)[C@H](Cc2c[nH]cn2)NC(=O)[C@@H](CC(C)C)NC1=O [COP 5] (cyclo(E[dL]L[dL]H[dK]K[dK]))
b: CC(C)C[C@@H]1NC(=O)[C@@H](CC(C)C)NC(=O)[C@H](CCCCN)NC(=O)[C@@H](CCCCN)NC(=O)[C@H](CCCCN)NC(=O)[C@@H](CCCCN)NC(=O)[C@H](CS)NC(=O)[C@@H](CC(C)C)NC1=O [COP 3] (cyclo(C[dK]K[dK]K[dL]L[dL]))
Kindly compare a with b and tell me which has the lower S. aureus ATCC 10566 MIC figure. Label of pick, please. b
(b: 16 µg/mL, a: 128 µg/mL)

###

Tested on: Escherichia coli ATCC 25922
Assay type: cell-based
Conditions: ATCC 25922, 18 h
Square brackets hold non-standard residues; d marks the D form. Peptide text beside a SMILES is read from it.
QUANTITY_MEASURED: E. coli ATCC 25922 MIC (µg/mL)

a: CC(C)C[C@@H]1NC(=O)[C@@H](CC(C)C)NC(=O)[C@H](CCCCN)NC(=O)[C@@H](CCCCN)NC(=O)[C@H](CCCCN)NC(=O)[C@@H](CCCCN)NC(=O)[C@H](CS)NC(=O)[C@@H](CC(C)C)NC1=O [COP 3] (cyclo(C[dK]K[dK]K[dL]L[dL]))
b: CC(C)C[C@@H]1NC(=O)[C@@H](CC(C)C)NC(=O)[C@H](CCC(=O)O)NC(=O)[C@@H](CCCCN)NC(=O)[C@H](CCCCN)NC(=O)[C@@H](CCCCN)NC(=O)[C@H](CS)NC(=O)[C@@H](CC(C)C)NC1=O [COP 6] (cyclo(C[dK]K[dK]E[dL]L[dL]))
c: CC(C)C[C@@H]1NC(=O)[C@@H](CC(C)C)NC(=O)[C@H](CCC(=O)O)NC(=O)[C@@H](CCCCN)NC(=O)[C@H](CCCCN)NC(=O)[C@@H](CCCCN)NC(=O)[C@H](Cc2c[nH]cn2)NC(=O)[C@@H](CC(C)C)NC1=O [COP 5] (cyclo(E[dL]L[dL]H[dK]K[dK]))
Using the recorded E. coli ATCC 25922 MIC, list the entries above from smallest to largest. # list labels per requested ordering a, c, b

###

Listing: S. aureus ATCC 10566 MIC of selected molecules
System: Staphylococcus aureus ATCC 10566
Assay type: cell-based
Conditions: ATCC 10566, 18 h
Square brackets hold non-standard residues; d marks the D form. Peptide text beside a SMILES is read from it.

Recorded S. aureus ATCC 10566 MIC, per entry:
{"MOLECULE": "CC(C)C[C@@H]1NC(=O)[C@@H](CC(C)C)NC(=O)[C@H](CCC(=O)O)NC(=O)[C@@H](CCCCN)NC(=O)[C@H](CCCCN)NC(=O)[C@@H](CCCCN)NC(=O)[C@H](CCC(=O)O)NC(=O)[C@@H](CC(C)C)NC1=O [COP 9] (cyclo(E[dK]K[dK]E[dL]L[dL]))", "S. aureus ATCC 10566 MIC": ">256 µg/mL"}
{"MOLECULE": "CC(C)C[C@@H]1NC(=O)[C@@H](CC(C)C)NC(=O)[C@H](CCC(=O)O)NC(=O)[C@@H](CCCCN)NC(=O)[C@H](Cc2c[nH]cn2)NC(=O)[C@@H](CCCCN)NC(=O)[C@H](Cc2c[nH]cn2)NC(=O)[C@@H](CC(C)C)NC1=O [COP 8] (cyclo(E[dL]L[dL]H[dK]H[dK]))", "S. aureus ATCC 10566 MIC": ">256 µg/mL"}

Turning now to a further record.
Memo: CC(C)C[C@@H]1NC(=O)[C@@H](CC(C)C)NC(=O)[C@H](CC(C)C)NC(=O)[C@@H](CC(C)C)NC(=O)[C@H](CCC(=O)O)NC(=O)[C@@H](CCCCN)NC(=O)[C@H](CCCCN)NC(=O)[C@@H](CCCCN)NC1=O [COP 7] (cyclo(E[dL]L[dL]L[dK]K[dK])) , reported S. aureus ATCC 10566 MIC: >256 µg/mL

###

Listing: E. coli ATCC 25922 MIC of selected compounds
Test system: Escherichia coli ATCC 25922
Format: cell-based
Details: ATCC 25922, 18 h
Square brackets hold non-standard residues; d marks the D form. Peptide text beside a SMILES is read from it.

{"COMPOUND": "CC(C)C[C@@H]1NC(=O)[C@@H](CC(C)C)NC(=O)[C@H](CC(C)C)NC(=O)[C@@H](CC(C)C)NC(=O)[C@H](CCC(=O)O)NC(=O)[C@@H](CCCCN)NC(=O)[C@H](CCCCN)NC(=O)[C@@H](CCCCN)NC1=O [COP 7] (cyclo(E[dL]L[dL]L[dK]K[dK]))", "ASSAY_SYSTEM": "Escherichia coli ATCC 25922", "RESULT": ">256 µg/mL"}

Memo: CC(C)C[C@@H]1NC(=O)[C@@H](CC(C)C)NC(=O)[C@H](CCC(=O)O)NC(=O)[C@@H](CCCCN)NC(=O)[C@H](Cc2c[nH]cn2)NC(=O)[C@@H](CCCCN)NC(=O)[C@H](Cc2c[nH]cn2)NC(=O)[C@@H](CC(C)C)NC1=O [COP 8] (cyclo(E[dL]L[dL]H[dK]H[dK])) , reported E. coli ATCC 25922 MIC: >256 µg/mL

Memo: CC(C)C[C@@H]1NC(=O)[C@@H](CC(C)C)NC(=O)[C@H](CCC(=O)O)NC(=O)[C@@H](CCCCN)NC(=O)[C@H](CCCCN)NC(=O)[C@@H](CCCCN)NC(=O)[C@H](CCC(=O)O)NC(=O)[C@@H](CC(C)C)NC1=O [COP 9] (cyclo(E[dK]K[dK]E[dL]L[dL])) , reported E. coli ATCC 25922 MIC: >256 µg/mL
